Measured Target: ATPase family AAA domain-containing protein 5 (Homo sapiens)
Assay Name: Validation screen for small molecules that inhibit ELG1-dependent DNA repair in human embryonic kidney (HEK293T) cells expressing luciferase-tagged ELG1 (AID 493107);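 further: cells co-treated with the DNA-damaging agent 5-fluorouridine alongside compound; inhibitors lower the ELG1-luciferase luminescence signal; nearly all actives have a fitted effect of over 70% in size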
Cond: HEK293T ELG1-luciferase level, luminescence, 5-fluorouridine co-treatment, 16 h; series mostly up to 46.1 µM
Results filed as inconclusive are left out. Active and inactive are the calls of the source. The call rests on the fitted dose curve; in most records, active means well fitted inhibition curve with a large enough effect; inconclusive means small, poorly fitted or top-dose-only effect, or effect the other way; inactive means flat fitted curve, though single readings scatter.
Attribute Measured: outcome

Compound	outcome
CC(NC(C)(C)C)C(=O)c1cccc(Cl)c1 (stereo not given)	inactive
COc1ccc2c(c1OC)C(=O)O[C@H]2[C@@H]1c2cc3c(cc2CCN1C)OCO3	inactive
CC(C)c1cccc(C(C)C)c1O	inactive
O=C(O)CCCc1ccc(N(CCCl)CCCl)cc1	inactive
CN1C(=O)CCS(=O)(=O)C1c1ccc(Cl)cc1 (stereo not given)	inactive
CCC1(c2ccc(N)cc2)CCC(=O)NC1=O (stereo not given)	inactive

The recorded outcome for entry O=P1(N(CCCl)CCCl)NCCCO1 (stereo not given) equals inactive

outcome reported for this compound CC(C)N(CCC(C(N)=O)(c1ccccc1)c1ccccn1)C(C)C (stereo not given) : inactive

The compound CC(C)(C)NCC(O)c1ccccc1Cl (stereo not given) showed outcome equal to inactive

The compound listed as NCCc1ccc(O)cc1 has a reported outcome of inactive

====

Assay Name: Quantitative High-Throughput drug screen in 47 multiple myeloma cell lines against the NCATS MIPE library collection: KMS12PE_JCRB cell viability assay (AID 1918972); further: nearly all actives have a fitted effect of over 30% in size
Cond: KMS12PE myeloma viability, CellTiter-Glo ATP, 48 h; series mostly up to 45.8 µM
Inconclusive results are not listed. Calls of active or inactive are those of the source. Calls follow the shape of the dose curve; as a rule, active = well fitted cell-killing curve with a large enough effect; inconclusive = small, poorly fitted or top-dose-only effect, or effect the other way; inactive = no such curve, though single readings can be large or run the other way.
Could you please pick one outcome from this set? YES for active, NO for inactive

Outcome logged for O=P1(N(CCCl)CCCl)NCCCO1 (stereo not drawn) in this assay:
YES

Status in this test for CN1C(=O)COc2c(C(=O)NC3CN4CCC3CC4)cc(Cl)cc21 (stereo not drawn) ?
NO

Hello, I am checking results. What call was entered for O=C(O)CCCc1ccc(N(CCCl)CCCl)cc1 ?
NO

What did this assay record as the result for CC(C)C[C@H](CN)CC(=O)O ?
NO

Which result was noted for this compound in the test: COc1cc(OC)c(OC)cc1C=O
NO

Write down the call the test reported for this compound. Item: CC(NC(C)(C)C)C(=O)c1cccc(Cl)c1 (stereo not drawn)
NO

Could you please tell me the result logged for CN1C(=O)CCS(=O)(=O)C1c1ccc(Cl)cc1 (stereo not drawn) in this assay?
NO

Please let me know the test result on file for CCC1(c2ccc(N)cc2)CCC(=O)NC1=O (stereo not drawn) .
NO

====

Test system: ICS
Assay Name: qHTS profiling for inhibitors of Plasmodium falciparum proliferation (AID 504749); further: nearly all actives have a fitted effect of over 60% in size; further: potency means the concentration at half of the fitted maximal effect
Cond: P. falciparum in erythrocytes, SYBR Green DNA, 72 h; series mostly up to 28.7 µM
Inconclusive results are not listed. Calls of active or inactive are those of the source. The call rests on the fitted dose curve; in most records, active means well fitted inhibition curve with a large enough effect; inconclusive means small, poorly fitted or top-dose-only effect; inactive means flat fitted curve, though single readings scatter.
Attribute Measured: Potency

Examples with their reported Potency follow.
Molecule	Attribute Measured	Value Reported
CC(C)=CC1C(C(=O)OCN2C(=O)C3=C(CCCC3)C2=O)C1(C)C (configuration not stated)	Potency	inactive
Clc1ccc2c(c1)C(c1ccccc1)=NCc1nncn1-2	Potency	inactive
Clc1cccc(SC2CCNCC2)n1	Potency	inactive
O=C1c2ccccc2C(=O)c2ccccc21	Potency	3550 nM (active)
CN1C(=O)NC(=O)C(C)(C2=CCCCC2)C1=O (configuration not stated)	Potency	inactive
CN1C[C@H](C(=O)N[C@]2(C)O[C@@]3(O)[C@@H]4CCCN4C(=O)[C@H](Cc4ccccc4)N3C2=O)C=C2c3cccc4[nH]cc(c34)C[C@H]21	Potency	39.8 nM (active)

The recorded Potency for O=C1Nc2ccc(Cl)cc2C(c2ccccc2)=NC1O (configuration not stated) is inactive

Note to self: Potency recorded for CC(C)NC(C)C was inactive

====

Cond: Ebola virus entry assay, green fluorescence channel
Entries with a potency or affinity are not part of this list. Active and inactive are the calls of the source.
Attribute Measured: outcome

Known results for compounds:
Compound	Value Reported
CSCC[C@H](NC(=O)[C@H](Cc1ccc(OS(=O)(=O)O)cc1)NC(=O)[C@@H](N)CC(=O)O)C(=O)NCC(=O)N[C@@H](Cc1c[nH]c2ccccc12)C(=O)N[C@@H](CCSC)C(=O)N[C@@H](CC(=O)O)C(=O)N[C@@H](Cc1ccccc1)C(N)=O	inactive
CCC[C@@]1(CCc2ccccc2)CC(O)=C([C@H](CC)c2cccc(NS(=O)(=O)c3ccc(C(F)(F)F)cn3)c2)C(=O)O1	inactive
NCC[C@H](O)C(=O)N[C@@H]1C[C@H](N)[C@@H](O[C@H]2O[C@H](CN)[C@@H](O)[C@H](O)[C@@H]2O)[C@H](O)[C@@H]1O[C@H]1O[C@H](CO)[C@@H](O)[C@H](N)[C@@H]1O	inactive
O=C(O)c1cc(N=Nc2ccc(O)c(C(=O)O)c2)ccc1O	inactive
O=C(O)CCCc1ccc(N(CCCl)CCCl)cc1	inactive
CO/N=C(/C(=O)N[C@@H]1C(=O)N2C(C(=O)O)=C(COC(N)=O)CS[C@H]12)c1ccco1	inactive
C[C@@H]1O[C@@H]1P(=O)(O)O	inactive
CCOc1cc(CC(=O)N[C@@H](CC(C)C)c2ccccc2N2CCCCC2)ccc1C(=O)O	inactive

response.value for C[C@@H]1O[C@@H](O[C@H]2CC[C@@]3(C)[C@H](CC[C@@H]4[C@H]3C[C@@H](O)[C@]3(C)[C@@H](C5=CC(=O)OC5)CC[C@]43O)C2)C[C@H](O)[C@@H]1O[C@H]1C[C@H](O)[C@H](O[C@H]2C[C@H](O)[C@@H](O)[C@@H](C)O2)[C@H](C)O1 (stereo in doubt) (field: outcome) = inactive

outcome reported for this compound COc1cc(NS(C)(=O)=O)ccc1Nc1c2ccccc2nc2ccccc12 : inactive

Lab note: CCc1cc(C(N)=S)ccn1 gave outcome of inactive

Entry under test: NS(=O)(=O)c1cc(Cl)c(Cl)c(S(N)(=O)=O)c1 . Its outcome was inactive

Recorded outcome (compound Nc1ccn([C@@H]2O[C@H](CO)[C@@H](O)C2O)c(=O)n1 (stereo not given in full) ): inactive

Kindly note the recorded outcome for C[C@@H]1[C@H](O)[C@@H](C)/C=C/C=C\C=C\C=C\C=C\C=C\C=C\[C@H](O[C@@H]2O[C@H](C)[C@@H](O)[C@H](N)[C@@H]2O)C[C@@H]2O[C@](O)(C[C@@H](O)C[C@@H](O)[C@H](O)CC[C@@H](O)C[C@@H](O)CC(=O)O[C@H]1C)C[C@H](O)[C@H]2C(=O)O (stereo in doubt) , which is inactive

The measured outcome associated with Nc1nc(/C(=C/CC(=O)O)C(=O)N[C@@H]2C(=O)N3C(C(=O)O)=CCS[C@H]23)cs1 reads inactive

====

Test system: CP256
Assay Name: qHTS profiling for inhibitors of Plasmodium falciparum proliferation (AID 504749); further: nearly all actives have a fitted effect of over 60% in size
Cond: P. falciparum in erythrocytes, SYBR Green DNA, 72 h; series mostly up to 28.7 µM
Records with an inconclusive call do not appear. The source made the active and inactive calls. Calls come from the whole dose curve; as a rule, active = well fitted inhibition curve with a large enough effect; inconclusive = small, poorly fitted or top-dose-only effect; inactive = flat fitted curve, though single readings scatter.
Output constraint: value belongs to active, inactive

Look up the recorded call for CCC(C)(C)c1ccc(O)cc1 in this test.
inactive

Query: recorded result category for CCOC(=O)CC(SP(=S)(OC)OC)C(=O)OCC (stereo not given) in this test
inactive

Please indicate how the test categorized CN1C(=O)C(O)N=C(c2ccccc2)c2cc(Cl)ccc21 (stereo not given) .
inactive

Field: outcome | Entry: COP(=S)(OC)SCN1C(=O)c2ccccc2C1=O
inactive

Field: outcome | Entry: O=C1OC(c2ccc(O)c(S(=O)(=O)O)c2)(c2ccc(O)c(S(=O)(=O)O)c2)c2c(Br)c(Br)c(Br)c(Br)c21
inactive

Can you look up the reported call for CN1C(=O)NC(=O)C(C)(C2=CCCCC2)C1=O (stereo not given) for me?
inactive

Which result was noted for this compound in the test: O=c1oc2ccccc2c(O)c1Cc1c(O)c2ccccc2oc1=O
inactive

Please let me know the test result on file for C=C(C)[C@H]1CN[C@H](C(=O)O)[C@H]1CC(=O)O .
inactive

Kindly provide the recorded test outcome for the following compound: O=c1[nH]oc2c1CCNC2
inactive

Would you mind telling me which call this test gave C[C@](O)(CS(=O)(=O)c1ccc(F)cc1)C(=O)Nc1ccc(C#N)c(C(F)(F)F)c1 ?
inactive

Record lookup: outcome of this test for NNc1ccccc1 ?
inactive

// outcome(item) with item = Clc1ccc2c(c1)C(c1ccccc1)=NCc1nncn1-2
inactive

Dear all, I need the recorded test outcome for COP(=S)(OC)Oc1ccc(S(=O)(=O)N(C)C)cc1 , thank you.
inactive

Which outcome was assigned to O=C(N/N=C/c1ccc([N+](=O)[O-])o1)c1cc([N+](=O)[O-])cc([N+](=O)[O-])c1O in this test?
active

Hi, do you know how C[C@]12CCC(=O)C=C1CC[C@@H]1[C@@H]2CC[C@]2(C)C(=O)CC[C@@H]12 came out in this test?
inactive

# outcome recorded in this test, key = C[C@]12CC[C@@H]3c4ccc(OC(=O)N(CCCl)CCCl)cc4CC[C@H]3[C@@H]1CC[C@@H]2O
inactive

In this assay, the call recorded for CN1CCC(O)(c2ccc(F)cc2)C(C(=O)c2ccc(F)cc2)C1 (stereo not given) was what?
inactive

Status in this test for O=C1Nc2ccc(Cl)cc2C(c2ccccc2)=NC1O (stereo not given) ?
inactive

Write down the call the test reported for this compound. Item: Oc1ccc(Cl)cc1
inactive

Hi, do you know how O=C(Nc1ccc(Br)cc1)c1cc(Br)cc(Br)c1O came out in this test?
inactive
